B1: Azoarcus group I ribozyme (parent)
chain: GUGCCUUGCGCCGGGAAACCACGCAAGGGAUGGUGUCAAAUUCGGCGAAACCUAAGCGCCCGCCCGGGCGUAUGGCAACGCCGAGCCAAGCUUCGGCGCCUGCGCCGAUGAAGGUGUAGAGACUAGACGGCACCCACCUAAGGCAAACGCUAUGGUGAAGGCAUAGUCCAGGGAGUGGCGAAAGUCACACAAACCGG

- Variants of: B1
- assay.protocol: reverse-splicing fitness (ratio to wild type); higher = more active; in vitro selection; Mg2+ level not given

{"columns": ["mutation.name", "reverse-splicing fitness"],
 "data": [
  ["C82A A111G A145G C150U C169G U176A", 0.0156],
  ["C82G A111U A120U C150U U176G", 0.00391],
  ["C82A A111C A120C U176C", 0.0216],
  ["C82U A111C A120C A145C C150U C169A U176C", 0.00703],
  ["A111U A120G A145C C169G U176C", 0.0387],
  ["A111U A120G A145U C150G C169U U176A", 0.0147],
  ["C82G A111G A120G A145U C169G U176A", 0.0149],
  ["A111G A120G A145U C169A U176A", 0.0397],
  ["A111G A120G A145U C169G U176A", 0.0761],
  ["A111U C169U U176C", 0.0365],
  ["C82A A111C A120C A145U C150G C169A U176G", 0.00744],
  ["C82U A120G A145C C150U C169A U176A", 0.00991],
  ["C82A A145U C169G U176A", 0.0105],
  ["C82A A145U C150A C169A", 0.00847],
  ["C82G A111G A120G A145C C150A C169A U176A", 0.0139],
  ["C82U A111G A145G C169U", 0.0113],
  ["C82U A111G A120C C169A", 0.00806],
  ["C82U A111C A120C C150A C169G U176C", 0.0184],
  ["A120U A145U C150A C169A U176G", 0.00156],
  ["C82A A111U A120U A145G C150U U176A", 0.01],
  ["C82U A111C A120C A145C C150U C169A U176A", 0.012],
  ["C82U A111C A120G A145G C150A", 0.00814],
  ["A111G A120U A145G C169A U176G", 0.0013],
  ["C82A A111G A120C A145C C150G U176A", 0.00522],
  ["A111G C150U C169A U176G", 0.00554],
  ["C82G A111C A120U C169G U176C", 0.00367],
  ["C82G A111G A120U C169U U176A", 0.00385],
  ["C82A A111C A120C A145C C150A C169U", 0.0105],
  ["A111G A120U A145U C150G C169U U176C", 0.00372],
  ["C82G A111U C150G C169A", 0.0104],
  ["C82G A111U A120U A145U C150G C169A U176C", 0.00246],
  ["A111U A120U A145U C150U C169A", 0.00404],
  ["C82A A111U C150A C169A U176A", 0.0188],
  ["C82U A111C C150A C169U U176A", 0.0166],
  ["C82G A111C A120U A145G C150U C169G U176C", 0.00437],
  ["A145U C150G", 0.512],
  ["A111G A120U C169A U176C", 0.00321],
  ["C82A A111U A145C C169A", 0.00733],
  ["C82A A111C A120U A145G C150G C169A U176A", 0.0122],
  ["C82U A111G A120G A145U C150U C169G U176G", 0.00409],
  ["A120U C150U", 0.774],
  ["C82A A111G A120U A145G C169G U176C", 0.00421],
  ["C82U A111U A120G A145G C150G C169A", 0.00888],
  ["C82G A111G A120G C150U U176G", 0.00986],
  ["C82G A111U A120C A145G C150A C169A U176G", 0.00968],
  ["C82G A111C A120U C150U C169U U176C", 0.00485],
  ["A111C C169U U176G", 0.00757],
  ["A120G C150U C169A U176G", 0.00612],
  ["C82A A111G U176C", 0.262],
  ["A111C A145C C150G U176A", 0.0871],
  ["A111U A120C A145U C150G U176A", 0.0175],
  ["C82G A111G A120C A145G C150U C169U U176C", 0.0145],
  ["C82G A120C C150A C169A U176G", 0.00601],
  ["C82G A120G A145U C150A C169U U176C", 0.0145],
  ["A111G A120C A145U C150G U176C", 0.0545],
  ["A111G A145U C150A", 0.365],
  ["A111U A145C C150G C169A U176A", 0.0076],
  ["C82A A120U A145G C150G C169U U176G", 0.00419],
  ["A111C A120U A145G C150A C169U U176A", 0.00876],
  ["C82A A111U A145C C150G C169U", 0.00999],
  ["A111U A120U A145G C169G", 0.0528],
  ["C82G A111C A120G A145C C150G C169G", 0.00722],
  ["C82A A120C U176G", 0.00961],
  ["C82G A111G A120U A145G C169U", 0.00538],
  ["C82A A111U A120C C150G C169G", 0.00832],
  ["C82A A111U A120G A145C C169G", 0.0105],
  ["C82G A111U A120C A145G C150U C169A U176A", 0.0177],
  ["A120C A145U C150A C169G U176A", 0.00974],
  ["C82G A111C A120U A145U C150G U176G", 0.00265],
  ["C82U A111G A145U C150A C169U U176C", 0.012],
  ["C82U A111C A120C A145C C150G C169U U176C", 0.0117],
  ["C82A A111C A145G C150G C169A U176A", 0.0119],
  ["C82U A120U A145U C150U C169U", 0.00476],
  ["C82U A120G C150A C169G U176C", 0.0214],
  ["C82A A111G A120C A145G C150G C169A U176C", 0.0137],
  ["C82G A111G A120U A145U C150U U176A", 0.0117],
  ["C82A A111C A120G C150A U176C", 0.0233],
  ["C82G A111G A120G A145C C150U U176A", 0.0118],
  ["C82G A120U C150A U176C", 0.0129],
  ["C82A A111C A120C A145C C150A C169U U176A", 0.0165],
  ["C82G A111C A120G C150A U176G", 0.0081],
  ["C82U A111U A120G A145G C150U C169U U176C", 0.014],
  ["C82A A111U A120G A145U C150G C169G U176C", 0.00476],
  ["C82G A145G C150A C169G U176G", 0.00515],
  ["C82A A111U A120C C150G C169A U176A", 0.0125],
  ["C82G A111G A120G A145C C150A C169A", 0.00854],
  ["C82U A111C A120C C150G C169U U176G", 0.00565],
  ["C82U A111C A120G A145G C150G C169G", 0.0068],
  ["C82G A111U A120G C150G C169U U176G", 0.00592],
  ["C82U A111U A120U A145U C150U C169U", 0.00365],
  ["A111G C150A C169A", 0.0135]
]}

All values here come from the RNAGym collection of RNA variant scans (doi:10.1093/molbev/msab373).
